Data credit: paper PMC6611904

- TARGET_UNDER_TEST: OsSUF4 zinc finger domain WT (Oryza sativa, UniProt Q653D5 10-100)
- Sequence (Q653D5 entry or part of it): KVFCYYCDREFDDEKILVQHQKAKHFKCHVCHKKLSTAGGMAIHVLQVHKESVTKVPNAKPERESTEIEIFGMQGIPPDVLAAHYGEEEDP
- TEST_NAME: ITC; ITC: 100 mM NaCl, 20 mM Tris-HCl pH 8.0, 25 C, 2 mM protein into 0.1 mM DNA; EMSA: LightShift kit binding buffer, 5 ug protein, 0.02 uM probe, poly(dI-dC), 25 C 30 min, 5% PAGE
- CONDITION_SUMMARY: protein: recombinant; tags: pET28-SUMO; Ni column; blunt
PARAMETER: Kd (µM)
Give just the numeric value; µM need not be written.

# Kd lookup, item ITC 16-bp DNA (dsDNA) DNA 1: GGGTACGGAAATGGTA DNA 2: TACCATTTCCGTACCC
51.3
